B1: FOXJ1 (parent)
chain: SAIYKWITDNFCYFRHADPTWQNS

Variants of: B1
Assay: protein stability index of a GFP-peptide fusion (GPS, HEK-293T) (PSI 1-6); higher = more stable;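 note: lentivirally expressed fusions sorted by FACS into six bins by GFP to DsRed ratio, PSI derived from sequencing read proportions per bin multiplied by bin number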
Conditions: c terminus: a fixed tail appended
metric: protein stability index
Lab note: record just the number, no unit beside it.

# variant `A2G` ; its protein stability index = 2.87

# variant `D18T` ; its protein stability index = 2.81

Consider `N10C` . Its measured protein stability index is 2.08

Form field protein stability index, entry `R15D` : 2.25

Memo: `P19A` , reported protein stability index: 3.17

Lab note: measured protein stability index of `I7R` was 1.79

Please fill in: protein stability index reported for `F11Q` = 2.21

Per the records, this variant ( `N23C` ) has protein stability index equal to 2.97

The reported value for `N23M` in terms of protein stability index is 2.75

Form field protein stability index, entry `K5V` : 3.36

Form field protein stability index, entry `I3D` : 2.83
